- Test system: Staphylococcus aureus
- test.protocol: Antibacterial activity against Staphylococcus aureus ATCC 25904 after 24 hrs by broth dilution method
- Format: functional
- experimental.setup: ATCC 25904, 24 h
Response field label: string, one of Met (MIC strictly below 40 µM) or Not met.

State whether 40 µM exceeds MIC recorded for `COC(=O)C12CC3CC(CC(N)(C3)C1)C2.Cl` .
Not met

Same for `O=C(CCn1sc2ccccc2c1=O)NC12CC3CC(CC(O)(C3)C1)C2`
Not met

# repeat for `O=C(Cn1sc2ccccc2c1=O)NNC(=O)C12CC3CC(CC(C3)C1)C2`
Not met

How about this molecule: `CC12CC3(C)CC(O)(C1)CC(NC(=O)Cn1sc4ccccc4c1=O)(C2)C3`
Met

And the next one, `CN(C)CCC(=O)c1ccc(Cl)c(Cl)c1` ?
Not met

Queued: `O=C(CCn1sc2ccccc2c1=O)NNC(=O)C12CC3CC(CC(C3)C1)C2`
Met

// next record `O=C(O)CCn1sc2ccccc2c1=O`
Not met

Every entry's value here was drawn from ChEMBL document CHEMBL3351277.
